src = PubChem BioAssay (NCI)

Test system: UACC-62 melanoma
Assay: NCI-60 one-dose screen, 48 h (100 = growth as untreated, 0 = no growth, -100 = all killed)
Details: 10 µM unless noted
Compounds without any hit were thinned out: in the full panel of roughly 83,000, 20% have a hit.
Binning of growth into classes: range 1 (below 20%), range 2 (20% to below 70%), range 3 (70% or more)

As a guide, the following entries are already answered.
Cc1c(Cl)cccc1C(=O)Nc1nc2c(s1)CN(C(=O)Nc1cccc(C(F)(F)F)c1)CC2 | range 2
COc1cc(C#Cc2ccc(=O)oc2C#Cc2ccccc2)cc(OC)c1OC | range 3
Cc1[nH]c(/C=C/C(=O)c2ccc(C(F)(F)F)c(F)c2)c(C)c1C(=O)NCC(C)C | range 3
CC1=CCC[C@@H]2C1(C)CC[C@H](C)[C@@]2(C)CC1=CC(=O)C(SC(C)(C)C)=CC1=O (some centres undefined) | range 2
Nc1n[nH]c2ccc([C@@H]3Nc4cc5[nH]ncc5cc4[C@H]4C5CCC(C5)[C@@H]34)cc12 (some centres undefined) | range 2

Where would COc1ccc(NC(=O)c2sc3nc4c(cc3c2N)CCCC4)cc1 land among the classes by reported growth? range 2

Where would CN1CCN(c2ccc3c(c2)nc(NNC(=O)c2cnccn2)c2cccn23)CC1 land among the classes by reported growth? range 1

Where would O=C(N/N=C/c1ccc(O)cc1O)c1ccc(Nc2ccnc(C(F)(F)F)c2)cc1 land among the classes by reported growth? range 1

Where would COc1cccc(Nc2ccnc3[nH]c4ccc([N+](=O)[O-])cc4c23)c1 land among the classes by reported growth? range 2

====

System: SF-295 CNS
Assay: NCI-60 one-dose screen, 48 h (100 = growth as untreated, 0 = no growth, -100 = all killed)
Conditions: 10 µM unless noted
The panel holds about 83,000 compounds, 20% with a hit somewhere; the sample as a whole holds those more often.
Quick list: growth per entry.
Your answer is read as %, so omit the unit and give the number.

O=C(CCC(=O)c1nc2ncccc2[nH]1)NN1C(=O)CSC1c1ccc(Cl)cc1 (centres undefined) | 108

Give the measured growth for O=c1[nH]c(-c2ccc(Cl)cc2)cn1-c1ccc(-n2cc(-c3ccc(Cl)cc3)[nH]c2=O)cc1 101

Give the measured growth for CN1CCN(C(=O)c2cc(-c3ccc4ncnc(N5CCc6cc(F)c(Cl)cc65)c4c3)cnc2N)CC1 0.0297

Give the measured growth for COc1cc(/C=C/c2cc(/C=C/c3ccc(O)c(OC)c3)n(C(=O)Nc3ccc(F)cc3)n2)ccc1O -21.6

Give the measured growth for CCOC(=O)c1ccc2c(c1)c1c(C)c3ccncc3c(C)c1n2C 1.65

Give the measured growth for COC(=O)C1=C(C)NC(C)=C(C(=O)OCC(C)C)C1c1ccccc1[N+](=O)[O-] (centres undefined) 56.9

Give the measured growth for CCOC(=O)c1c2c(n3c1NCC3)-c1ccccc1C2=O 96

Give the measured growth for CCN(CC)CCCNCc1cc(-c2ccccc2)nc2cc(Cl)ccc12 79.9

Give the measured growth for Fc1ccc2c(c1)c(-c1nc(-c3c[nH]c4ncccc34)cs1)cn2CCCN1CCOCC1 27.5

====

System: U251 CNS
Assay: NCI-60 one-dose screen, 48 h
Settings: 10 µM unless noted
The panel holds about 83,000 compounds, 20% with a hit somewhere; the sample as a whole holds those more often. Activity calls are given as the source filed them. How the source made its calls: active means growth percent below 10; inactive means the rest.
// one of active, inactive, no free text

COc1cc(/C=C2\CN(S(=O)(=O)c3ccc(C)cc3)C/C(=C\c3cc(CN4CCCCC4)c(O)c(OC)c3)C2=O)cc(CN2CCCCC2)c1O | active
O=C1CCC(C(=O)NN(c2ccccc2)c2ccccc2)N1 (stereo not given) | inactive
CCN(CC)CCNC(=O)c1ccc(-c2nc3ccc4[nH]ncc4c3c3c2CCCC3)cc1 | inactive
CC(=O)c1c(Nc2ccc(F)c(F)c2F)[nH]c2c(F)cc(F)cc2c1=O | active
CCN(CC)CCOc1ccc(Nc2ncc3cc(-c4ccc(O)cc4)c(=O)n(C)c3n2)cc1 | inactive

Recorded call for CC(C)CN1CC(C(=O)Nc2ccc3c(c2)-c2ccccc2C3)CC1=O (stereo not given) ? inactive

Recorded call for O=C1c2cccnc2C(=O)c2c1c(C(=O)OCCCN1CCCCC1)c1ccccn21 ? active

Recorded call for C/C(=C(\c1ccc(OCCN2CCCCCC2)cc1)c1ccc(OC(=O)Cc2ccccc2)cc1)c1ccc(Cl)cc1 ? active

Recorded call for O=C(Nc1ccccc1)c1sc(-c2ccccc2)cc1O ? inactive

Recorded call for CN1CCCc2cc(/C=C3/SC(=S)N(CCc4ccc(O)cc4)C3=O)ccc21 ? inactive

====

Quick list: growth per entry.
Tested on: HCC-2998 colon
Test: NCI-60 one-dose screen, 48 h (100 = growth as untreated, 0 = no growth, -100 = all killed)
Conditions: 10 µM unless noted
About 83,000 compounds went through this panel and 20% of them were active in at least one assay; those are over-represented in the sample as a whole.
Your answer is read as %, so omit the unit and give the number.

Here is how some molecules turned out for growth.
O=C1OCC2=C1C(c1cccc(F)c1)c1cc3c(cc1N2CCO)OCO3 (configuration not stated) | 77
Nc1n[nH]c2ccc([C@@H]3Nc4cc5[nH]ncc5cc4[C@H]4C5CCC(C5)[C@@H]34)cc12 (some centres not stated) | 18.1
O=C(Nc1ccccc1)c1sc(-c2ccccc2)cc1O | 101
O=C1N[C@@H]2[C@@H](O)[C@@H](O)[C@H](O)C[C@H]2c2cc3c(c(O)c21)OCCO3 | -46.2
CCOC(=O)C1=C(c2ccccc2)N=c2s/c(=C/c3ccc(Br)cc3)c(=O)n2C1c1ccc(O)cc1 (configuration not stated) | 105
O=C(Cn1nnc2ccccc21)Nc1ccc(-c2nc3ccccc3s2)cc1 | 93.7

Give the measured growth for O=C1NC(=O)c2c1c1c3ccccc3[nH]c1c1oc3cc(Br)ccc3c21 99.7

Give the measured growth for CCOC(=O)C1CCN(c2ccc(N3C[C@@H](CNCc4ccc(C(=N)N)cc4)OC3=O)cc2)CC1 108

Give the measured growth for O=C(/C=C/c1cccc(Cl)c1)c1cccc(OCCCCOc2cccc(C(=O)/C=C/c3cccc(Cl)c3)c2)c1 85.5

Give the measured growth for CC1(C)CC[C@]2(C(=O)N3CCOCC3)CC[C@]3(C)C(=CC[C@@H]4[C@@]5(C)C/C(=C/c6ccncc6)C(=O)C(C)(C)[C@@H]5CC[C@]43C)[C@@H]2C1 -24.5

Give the measured growth for Cc1cc2oc(=O)cc(CP(=O)(O)O)c2cc1O 103

Give the measured growth for CCCCCCCC/C=C\CCCCCCCCOc1ccc(CC(=O)NCC[N+](C)(C)C)cc1 43.1

====

Tested on: PC-3 prostate
Assay: NCI-60 one-dose screen, 48 h (100 = growth as untreated, 0 = no growth, -100 = all killed)
Settings: 10 µM unless noted
The panel holds about 83,000 compounds, 20% with a hit somewhere; the sample as a whole holds those more often.
Measured metric: growth (%)
Your answer is read as %, so omit the unit and give the number.

Here is how some compounds turned out for growth.
Fc1ccc(COc2ccc(Nc3ncnc4sc5c(c34)CCCC5)cc2)cc1 | 72.2
COc1cc(OC)cc(C2C(C#N)=C(N)Oc3c2ccc2ccc(O)cc32)c1 (stereo not given) | 17.6
Cc1ccc2nc(Cl)c(Cn3nnnc3SCc3ccccc3)cc2c1 | 90.4
NC(=O)c1c(NC(=O)c2ccc(Cl)cc2)sc2c1CCC(=O)C2 | 15.5
COc1cccc(OC)c1Oc1c(-c2nc3ccccc3s2)c(C)nn1-c1ccccc1 | 51.1
COc1ccc2c(O)c(/C=C3\N=Nc4ccccc43)oc2c1C[C@H]1CCNC[C@H]1F | 40.8
Cc1nc2ccccc2c(/C=C/c2ccc(C(F)(F)F)cc2)c1C(=O)/C=C/c1ccccc1 | 12
O=C1Nc2ccccc2/C1=C/c1cn(C[C@@H](O)Cn2c3ccccc3c(=O)c3ccccc32)c2ccccc12 | 51.1
CCOC(=O)c1c(NC(=O)CSc2n[nH]c3nc4ccccc4n23)sc(CC)c1C | 61.5

// below: growth requested for another compound
Give the measured growth for O=C1C(Cl)=C(NCCN2CCOCC2)C(=O)c2ncccc21 38.1

====

System: LOX IMVI melanoma
Assay: NCI-60 one-dose screen, 48 h (100 = growth as untreated, 0 = no growth, -100 = all killed)
Conditions: 10 µM unless noted
About 83,000 compounds went through this panel and 20% of them were active in at least one assay; those are over-represented in the sample as a whole.
Measured metric: growth (%)
Your answer is read as %, so omit the unit and give the number.

Here is how some compounds turned out for growth.
Nc1c(C(=O)O)cc(Cl)cc1[N+](=O)[O-] | 100
Cc1[nH]c(C(=O)Nc2ccc(C(N)=O)cc2NC(C)C)c(Cl)c1Cl | 96.2
O=C1CC2C=CCN2C=C1NC(=O)C1CCCCC1 (configuration not stated) | 96.9

Give the measured growth for O=C(N/N=C/c1ccc(O)cc1O)c1ccc(Nc2ccnc(C(F)(F)F)c2)cc1 12.9

Give the measured growth for CCSC1=CC(=O)c2ccccc2C1=O 47.7
